Literature roundup of Carbonic anhydrase 1 (Homo sapiens) data, read-out log10(Ki).
PARAMETER: log10(Ki) (log10 of the value in nM)

sample_smiles=CCc1cc(-c2ccccc2)cc(CC)[n+]1CC(=O)NCc1ccc(S(N)(=O)=O)cc1 study_target="Carbonic anhydrase 1 (Homo sapiens)" recorded_number=3.15
sample_smiles=Cn1nc(S(N)(=O)=O)s/c1=N/S(=O)(=O)c1ccc(C(=O)O)cc1 study_target="Carbonic anhydrase 1 (Homo sapiens)" recorded_number=1.70
sample_smiles=NCCCC(=O)Nc1cccc(S(N)(=O)=O)c1 study_target="Carbonic anhydrase 1 (Homo sapiens)" recorded_number=4.24
sample_smiles=NCC(=O)NCC(=O)NS(=O)(=O)c1ccc(CCO)cc1 study_target="Carbonic anhydrase 1 (Homo sapiens)" recorded_number=3.18
sample_smiles=NS(=O)(=O)c1nc2ccc(NC(=O)CN(CCN(CC(=O)O)CC(=O)O)CC(=O)O)cc2s1 study_target="Carbonic anhydrase 1 (Homo sapiens)" recorded_number=1.68
sample_smiles=C[C@H](CCC(=O)Nc1ccc(S(N)(=O)=O)cc1)[C@H]1CC[C@H]2[C@@H]3CC[C@@H]4C[C@H](O)CC[C@]4(C)[C@H]3C[C@H](O)[C@]12C study_target="Carbonic anhydrase 1 (Homo sapiens)" recorded_number=4.08
sample_smiles=NS(=O)(=O)c1ccc(CCNc2nc(Cl)nc(Cl)n2)cc1 study_target="Carbonic anhydrase 1 (Homo sapiens)" recorded_number=1.88
sample_smiles=NCCCC(=O)Nc1ccc(S(N)(=O)=O)cc1F study_target="Carbonic anhydrase 1 (Homo sapiens)" recorded_number=2.72
sample_smiles=NS(=O)(=O)c1ccc(C(=O)N[C@@H](Cc2ccc(O)cc2)C(=O)O)cc1 study_target="Carbonic anhydrase 1 (Homo sapiens)" recorded_number=2.73

###

Literature roundup of Carbonic anhydrase 1 (Homo sapiens, UniProt P00915) data, read-out log10 Ki.
PARAMETER: log10 Ki (log10 of the value in nM)

compound=NS(=O)(=O)c1ccc(CNC(=O)c2ccsc2)cc1 recorded_number=1.65
compound=O=S1(=O)C=Cc2ccc(S(=O)(=O)NCC3CC3)cc21 recorded_number=2.69
compound=NS(=O)(=O)c1ccc(C(=O)OCc2ccc(CO[N+](=O)[O-])cc2)cc1 recorded_number=2.38
compound=C[C@H](CCC(=O)Nc1c(S(N)(=O)=O)cc(S(N)(=O)=O)c(Cl)c1Cl)[C@H]1CC[C@H]2[C@@H]3CC[C@@H]4C[C@H](O)CC[C@]4(C)[C@H]3C[C@H](O)[C@]12C recorded_number=2.45
compound=NCC(=O)Nc1nccc(Nc2ccc(S(N)(=O)=O)cc2)n1 recorded_number=1.79
compound=COc1cc(C(=O)O)cc(OC)c1O recorded_number=3.62
compound="CC(=O)N1N=C(c2cccc(OS(N)(=O)=O)c2)CC1c1ccc(Cl)cc1 (configuration not stated)" recorded_number=2.64
compound=NS(=O)(=O)c1ccc(-c2cc3ccccc3o2)cc1 recorded_number=2.27
compound=CC1(C)OB(c2ccc(C(=O)NCCc3ccc(S(N)(=O)=O)cc3)cc2)OC1(C)C recorded_number=1.85
compound=NS(=O)(=O)c1ccc(CC/N=C/c2ccc(O)cc2)cc1 recorded_number=2.02
compound=Cc1ccc(S(=O)(=O)Nc2nnc(S(N)(=O)=O)s2)cc1 recorded_number=0.70
compound=NS(=O)(=O)Oc1ccc(Oc2ccccc2)cc1 recorded_number=2.06
compound=NS(=O)(=O)c1ccc(NC(=O)Nc2c(F)c(F)c(F)c(F)c2F)c(F)c1 recorded_number=2.88
compound="CCCCC(CC)C(=O)O (configuration not stated)" recorded_number=5.65
compound=NS(=O)(=O)c1ccc(-n2ncc3ccccc3c2=O)cc1 recorded_number=1.86
compound=NCC(=O)NNc1ccc(S(N)(=O)=O)cc1 recorded_number=4.41
compound=Nc1cccc(C(=O)O)c1 recorded_number=3.94
compound=NS(=O)(=O)c1ccc(-c2ccc([N+](=O)[O-])cc2)cc1 recorded_number=1.79
compound=NS(=O)(=O)c1ccc(CNC(=S)N[C@@H]2O[C@H](CO)[C@@H](O)[C@H](O)[C@H]2O)cc1 recorded_number=3.88
compound=NCC(=O)Nc1ccc(S(=O)(=O)Nc2nnc(S(N)(=O)=O)s2)cc1 recorded_number=1.15
compound=O=C(O)c1ccc(O)cc1 recorded_number=3.99
compound="COc1ccc(S(=O)(=O)NC(C(=O)NO)C(C)C)cc1 (configuration not stated)" recorded_number=1.52
compound=NCC(=O)NCC(=O)NCc1ccc(S(N)(=O)=O)cc1 recorded_number=3.13
compound=NS(=O)(=O)c1ccc(N2C(=O)c3c(Br)c(Br)c(Br)c(Br)c3C2=O)c(Br)c1 recorded_number=2.16
compound=Cn1nc(S(N)(=O)=O)s/c1=N\S(=O)(=O)c1ccc(NC(=O)CNC(=O)CN)cc1 recorded_number=1.11
compound=NS(=O)(=O)c1ccc(C[n+]2c(-c3ccccc3)cccc2-c2ccccc2)cc1 recorded_number=5.45
compound=C[C@H](CCC(=O)OCCOc1ccc2nc(S(N)(=O)=O)sc2c1)[C@H]1CC[C@H]2[C@@H]3[C@@H](O)C[C@@H]4C[C@H](O)CC[C@]4(C)[C@H]3CC[C@]12C recorded_number=1.48
compound=CN(C)c1ccc2c(-c3ccc(NC(=S)NCc4cn(-c5cccc(S(N)(=O)=O)c5)nn4)cc3C(=O)O)c3ccc(=[N+](C)C)cc-3oc2c1 recorded_number=3.81
compound=NS(=O)(=O)c1ccc(NS(=O)(=O)c2c(F)c(F)cc(F)c2F)cc1 recorded_number=3.11
compound=CC(=O)/C(=N\Nc1ccc(F)cc1)C(=O)Nc1ccc(S(N)(=O)=O)cc1 recorded_number=3.43
compound=NS(=O)(=O)OCCCCl recorded_number=3.66
compound=CC(C)CSc1cc2c(cc1S(N)(=O)=O)S(=O)(=O)NCN2 recorded_number=5.59
compound=NC1CCN(C(=O)c2ncc(-c3ccc(S(N)(=O)=O)cc3)o2)CC1 recorded_number=1.79
compound=Nc1nc(-c2ccc(NCC(=O)c3ccc(S(N)(=O)=O)cc3)cc2)cn2c(=O)n(-c3ccccc3)nc12 recorded_number=2.77
